Tested on: Rattus norvegicus
test-summary: Natriuretic activity in rats at 81 mg/kg of dosage; mequiv of Na
Assay type: functional
Labelling field: enter Fulfilled if recorded Oral activity is less than 70. Enter Not fulfilled if it equals or exceeds that cut-off.

Some entries whose results are on file:
NS(=O)(=O)c1cc(C(=O)O)c(NCc2ccco2)cc1Cl [FUROSEMIDE] | Not fulfilled
N#CC1Cc2cc(C(=O)c3cccs3)c(Cl)c(Cl)c2O1 (stereo not given) | Fulfilled
COc1ccc(C(=O)c2cc3c(c(Cl)c2Cl)OC(C(=O)O)C3)cc1 (stereo not given) | Not fulfilled
O=C(O)COc1ccc(C(=O)c2cccs2)c(Cl)c1Cl | Fulfilled

Next item in the queue.
Is 70 strictly greater than the compound's reported Oral activity? compound: O=CC1Cc2cc(C(=O)c3cccs3)c(Cl)c(Cl)c2O1 (stereo not given)
Not fulfilled

---

Tested on: Rattus norvegicus
test-summary: Natriuretic activity in rats at 81 mg/kg of dosage; mequiv of Na
Format: functional
Labelling field: enter MET if recorded Oral activity is less than 200. Enter NOT MET if it equals or exceeds that cut-off.

Some entries whose results are on file:
O=C(c1ccccc1)c1cc2c(c(Cl)c1Cl)OC(C(=O)O)C2 (stereo not given) | MET
NC(=O)C1Cc2cc(C(=O)c3cccs3)c(Cl)c(Cl)c2O1 (stereo not given) | MET
O=C(O)C1Cc2cc(C(O)c3cccs3)c(Cl)c(Cl)c2O1 (stereo not given) | MET
O=C(Cc1ccccc1)c1cc2c(c(Cl)c1Cl)OC(C(=O)O)C2 (stereo not given) | MET
O=C(O)c1cc2cc(C(=O)c3cccs3)c(Cl)c(Cl)c2o1 | MET
CCOC(=O)C1Cc2cc(C(=O)c3cccs3)c(Cl)c(Cl)c2O1 (stereo not given) | MET
N=C(N)NC(=O)C1Cc2cc(C(=O)c3cccs3)c(Cl)c(Cl)c2O1 (stereo not given) | MET
Cc1c(C(=O)c2cccs2)cc2c(c1C)OC(C(=O)O)C2 (stereo not given) | MET
O=C(c1ccco1)c1cc2c(c(Cl)c1Cl)OC(C(=O)O)C2 (stereo not given) | NOT MET
O=C(c1cccs1)c1cc2c(c(Cl)c1Cl)O[C@@H](C(=O)O)C2 | MET

Is 200 strictly greater than the compound's reported Oral activity? compound: O=C(O)C1Cc2cc(S(=O)(=O)c3cccs3)c(Cl)c(Cl)c2O1 (stereo not given)
MET

---

Tested on: Rattus norvegicus
test-summary: Natriuretic activity in rats at 81 mg/kg of dosage; mequiv of Na
Type: functional
property: Oral activity
Answers are plain numbers.

Check out these entries, answers already filled in.
O=C(c1ccc2c(c1)CC(C(=O)O)O2)c1cccs1 (centres undefined) | 22
NNC(=O)C1Cc2cc(C(=O)c3cccs3)c(Cl)c(Cl)c2O1 (centres undefined) | 140

Parameters: items (list). Returns: Oral activity for each item.
1. O=C(c1cnsn1)c1cc2c(c(Cl)c1Cl)OC(C(=O)O)C2 (centres undefined)
2. O=C(O)C1Cc2cc(Cc3cccs3)c(Cl)c(Cl)c2O1 (centres undefined)
3. O=C(c1cccs1)c1cc2c(c(Cl)c1Cl)OC(CO)C2 (centres undefined)
4. O=C(c1cccs1)c1cc2c(c(Cl)c1Cl)O[C@H](C(=O)O)C2
5. O=C(c1cccs1)c1cc2c(c(Cl)c1Cl)OC(c1nnn[nH]1)C2 (centres undefined)
6. CC(=O)c1cc2c(c(Cl)c1Cl)OC(C(=O)O)C2 (centres undefined)
7. O=C(c1cccs1)c1cc2c(c(Cl)c1Cl)OC(C(=O)O)C2 (centres undefined)

[284, 21, 72, 339, 29, 161, 310]

// data source = ChEMBL document CHEMBL1121663
